Test system: PBMCs
assay_comment: IL-2 and IFN gamma release in CD3/CD28 stimulated PBMC cells
Format: cell-based
cond: Homo sapiens, read-out: IC50 Values for Inhibition of Cytokine Release PBMCs IL-2
Experimental: PBMCs from healthy subjects are separated from whole blood using a density gradient (Lymphoprep, Axis-Shield Healthcare). Cells are added to a 96 well plate pre-coated with a mixture of CD3/CD38 monoclonal antibodies (0.3 μg/mL eBioscience and 3 μg/mL BD Pharmingen respectively). […] Supernatants are harvested and IL-2 and IFN gamma release determined by Sandwich ELISA (Duo-set, R&D System). The IC50 is determined from the dose response curve.
Threshold 40 nM: IC50 strictly smaller gives t, otherwise f.

- chem_smiles: "COc1cc(Nc2nccc(Oc3ccc(NC(=O)Nc4cc(C(C)(C)C)nn4-c4ccc(C)cc4)c4ccccc34)n2)cc(OCCCN2CCOCC2)c1"
  label: "f"
- chem_smiles: "COc1cc(Nc2nccc(Oc3ccc(NC(=O)Nc4cc(C(C)C)nn4-c4ccc(C)cc4)c4ccccc34)n2)cc(OS(C)(=O)=O)c1"
  label: "t"
- chem_smiles: "COc1cc(Nc2nccc(Oc3ccc(NC(=O)Nc4cc(C(C)(C)C)nn4-c4ccc(C)cc4)c4ccccc34)n2)cc(S(=O)(=O)C2CC2)c1"
  label: "f"
- chem_smiles: "COc1cc(Nc2nccc(Oc3ccc(NC(=O)Nc4cc(C(C)C)nn4-c4ccc(C)cc4)c(Cl)c3Cl)n2)cc(OCCN2CCOCC2)c1"
  label: "t"
- chem_smiles: "COc1cc(Nc2nccc(Oc3ccc(NC(=O)Nc4cc(C(C)(C)C)nn4-c4ccc(C)cc4)c4ccccc34)n2)cc(SCCN2CCOCC2)c1"
  label: "f"
- chem_smiles: "COCCOCCOCCOc1cc(Nc2nccc(Oc3ccc(NC(=O)Nc4cc(C(C)(C)C)nn4-c4ccc(C)cc4)c4ccccc34)n2)cc(OC)c1Cl"
  label: "t"
- chem_smiles: "COCCOCCOc1cc(Nc2nccc(Oc3ccc(NC(=O)Nc4cc(C(C)(C)C)nn4-c4ccc(C)cc4)c4ccccc34)n2)cc(OC)c1"
  label: "f"
- chem_smiles: "COc1ccc(-n2nc(C(C)(C)C)cc2NC(=O)Nc2ccc(Oc3ccnc(Nc4cccc(N=S(C)(C)=O)c4)n3)c3ccccc23)cn1"
  label: "f"
- chem_smiles: "COCCOCCOCCOc1cc(Nc2nccc(Oc3ccc(NC(=O)Nc4cc(C(C)C)nn4-c4ccc(C)cc4)c4ccccc34)n2)cc(OC)c1"
  label: "t"

###

target_system: Syk (Homo sapiens (Human), UniProt P43405)
pIC50: −log10 of the molar value.
Hi, to clarify the labels: MET covers pIC50 from 7 upward, NOT MET covers anything below 7.

- compound: "COCCOCCOCCOCCOCCOCCOCCOc1cc(Nc2nccc(Oc3ccc(NC(=O)Nc4cc(C(C)(C)C)nn4-c4ccc(C)cc4)c4ccccc34)n2)cc(OC)c1 [Example 51]"
  target_system: "Syk (Homo sapiens (Human), UniProt P43405)"
  label: "MET"
- compound: "COc1cc(Nc2nccc(Oc3ccc(NC(=O)Nc4cc(C(C)C)nn4-c4ccc(C)cc4)c(Cl)c3Cl)n2)cc(S(=O)(=O)C2CC2)c1 [Example 23]"
  target_system: "Syk (Homo sapiens (Human), UniProt P43405)"
  label: "NOT MET"
- compound: "COc1cc(Nc2nccc(Oc3ccc(NC(=O)Nc4cc(C(C)C)nn4-c4ccc(C)cc4)c4ccccc34)n2)cc(OS(C)(=O)=O)c1 [Example 12]"
  target_system: "Syk (Homo sapiens (Human), UniProt P43405)"
  label: "NOT MET"
